meta.source: the supplement of paper PMC10307832

We begin with a simple list: items and their reported relative viability.
Tested on: NCI-H2085
Test: relative viability (nuclei count vs DMSO), 5 days (fraction); higher = more cells survive
Conditions: first compound 2.53 µM
QUANTITY_MEASURED: relative viability

# COMPOUND, ASSAYED_SYSTEM, ASSAY_RESULT
rows = [
    ("COc1nc(C)cnc1NS(=O)(=O)c1cccnc1-c1ccc(-c2nnco2)cc1 [Zibotentan] + CC(=O)c1c(C)c2cnc(Nc3ccc(N4CCNCC4)cn3)nc2n(C2CCCC2)c1=O [Palbociclib] (partner 0.5 µM)", "NCI-H2085", 0.47),
    ("O=c1cc(-c2cccc3c2Sc2ccccc2S3)oc(N2CCOCC2)c1 + CC(=O)Nc1cccc(-n2c(=O)n(C3CC3)c(=O)c3c(Nc4ccc(I)cc4F)n(C)c(=O)c(C)c32)c1 [Trametinib] (partner 0.02 µM)", "NCI-H2085", 0.401),
    ("COc1nc(C)cnc1NS(=O)(=O)c1cccnc1-c1ccc(-c2nnco2)cc1 [Zibotentan] + C[C@@H](Oc1cc(-c2cnn(C3CCNCC3)c2)cnc1N)c1c(Cl)ccc(F)c1Cl [Crizotinib] (partner 1 µM)", "NCI-H2085", 0.925),
    ("O=c1cc(-c2cccc3c2Sc2ccccc2S3)oc(N2CCOCC2)c1 + COc1cc2c(Oc3ccc(NC(=O)C4(C(=O)Nc5ccc(F)cc5)CC4)cc3F)ccnc2cc1OCCCN1CCOCC1 [Foretinib] (partner 0.25 µM)", "NCI-H2085", 0.771),
    ("O=c1cc(-c2cccc3c2Sc2ccccc2S3)oc(N2CCOCC2)c1 + C[C@]1(O)C[C@@H](c2nc(-c3ccc4ccc(-c5ccccc5)nc4c3)c3c(N)nccn32)C1 [Linsitinib] (partner 1 µM)", "NCI-H2085", 0.846),
]

###

Entries and their measured relative viability follow.
System: COR-L23
Test: relative viability (nuclei count vs DMSO), 5 days (fraction); higher = more cells survive
Details: first compound 2.53 µM

# MOLECULE, relative viability
rows = [
    ("COc1nc(C)cnc1NS(=O)(=O)c1cccnc1-c1ccc(-c2nnco2)cc1 [Zibotentan] + Cc1cc(Nc2cc(N3CCN(C)CC3)nc(Sc3ccc(NC(=O)C4CC4)cc3)n2)n[nH]1 [Tozasertib] (partner 0.1 µM)", 0.337),
    ("O=c1cc(-c2cccc3c2Sc2ccccc2S3)oc(N2CCOCC2)c1 + Cc1nc(NC(=O)N2CCC[C@H]2C(N)=O)sc1-c1ccnc(C(C)(C)C(F)(F)F)c1 [Alpelisib] (partner 2 µM)", 0.786),
    ("COc1nc(C)cnc1NS(=O)(=O)c1cccnc1-c1ccc(-c2nnco2)cc1 [Zibotentan] + CS(=O)(=O)CCNCc1ccc(-c2ccc3ncnc(Nc4ccc(OCc5cccc(F)c5)c(Cl)c4)c3c2)o1 [Lapatinib] (partner 2 µM)", 0.798),
    ("COc1nc(C)cnc1NS(=O)(=O)c1cccnc1-c1ccc(-c2nnco2)cc1 [Zibotentan] + CC(C)C[C@H](NC(=O)[C@H](Cc1ccccc1)NC(=O)c1cnccn1)B(O)O [Bortezomib] (partner 0.002 µM)", 1.07),
]

###

Test system: NCI-H1650
Test: relative viability (nuclei count vs DMSO), 5 days (fraction); higher = more cells survive
Settings: first compound 1 µM

# COMPOUND, relative viability
data = [
    ("CCN(CC)CCCCNc1ncc2cc(-c3cc(OC)cc(OC)c3)c(NC(=O)NC(C)(C)C)nc2n1 + COc1cccc2cc(-c3nc([C@H]4CC[C@H](C(=O)O)CC4)n4ncnc(N)c34)[nH]c12 [OSI-027] (partner 0.5 µM)", 0.4),
    ("O=c1cc(N2CCOCC2)oc2c(-c3cccc4c3sc3ccccc34)cccc12 + COc1cccc2cc(-c3nc([C@H]4CC[C@H](C(=O)O)CC4)n4ncnc(N)c34)[nH]c12 [OSI-027] (partner 0.5 µM)", 0.592),
    ("O=c1cc(N2CCOCC2)oc2c(-c3cccc4c3sc3ccccc34)cccc12 + CC(=O)c1c(C)c2cnc(Nc3ccc(N4CCNCC4)cn3)nc2n(C2CCCC2)c1=O [Palbociclib] (partner 0.5 µM)", 0.317),
    ("O=c1cc(N2CCOCC2)oc2c(-c3cccc4c3sc3ccccc34)cccc12 + Cc1cc(Nc2cc(N3CCN(C)CC3)nc(Sc3ccc(NC(=O)C4CC4)cc3)n2)n[nH]1 [Tozasertib] (partner 0.1 µM)", 0.352),
    ("CCN(CC)CCCCNc1ncc2cc(-c3cc(OC)cc(OC)c3)c(NC(=O)NC(C)(C)C)nc2n1 + CC(C)C[C@H](NC(=O)[C@H](Cc1ccccc1)NC(=O)c1cnccn1)B(O)O [Bortezomib] (partner 0.002 µM)", 0.197),
]

###

Tested on: NCI-H1755
Assay: relative viability (nuclei count vs DMSO), 5 days (fraction); higher = more cells survive
Conditions: first compound 0.08 µM
Property: relative viability; scope: individual compounds
QUANTITY_MEASURED: relative viability

# COMPOUND, QUANTITY_MEASURED, ASSAY_RESULT
rows = [
    ("COc1nc(C)cnc1NS(=O)(=O)c1cccnc1-c1ccc(-c2nnco2)cc1 [Zibotentan] + CC(C)C[C@H](NC(=O)[C@H](Cc1ccccc1)NC(=O)c1cnccn1)B(O)O [Bortezomib] (partner 0.002 µM)", "relative viability", 0.945),
    ("COc1nc(C)cnc1NS(=O)(=O)c1cccnc1-c1ccc(-c2nnco2)cc1 [Zibotentan] + Cc1nc(Nc2ncc(C(=O)Nc3c(C)cccc3Cl)s2)cc(N2CCN(CCO)CC2)n1 [Dasatinib] (partner 0.075 µM)", "relative viability", 0.433),
    ("O=c1cc(-c2cccc3c2Sc2ccccc2S3)oc(N2CCOCC2)c1 + COc1cccc2cc(-c3nc([C@H]4CC[C@H](C(=O)O)CC4)n4ncnc(N)c34)[nH]c12 [OSI-027] (partner 0.5 µM)", "relative viability", 0.71),
    ("COc1nc(C)cnc1NS(=O)(=O)c1cccnc1-c1ccc(-c2nnco2)cc1 [Zibotentan] + CS(=O)(=O)CCNCc1ccc(-c2ccc3ncnc(Nc4ccc(OCc5cccc(F)c5)c(Cl)c4)c3c2)o1 [Lapatinib] (partner 2 µM)", "relative viability", 1.06),
]

###

Tested on: NCI-H2347
Assay: relative viability (nuclei count vs DMSO), 5 days (fraction); higher = more cells survive
Details: first compound 1 µM
// relative viability lookup, one value per entry

# MOLECULE, relative viability
data = [
    ("O=c1cc(N2CCOCC2)oc2c(-c3cccc4c3sc3ccccc34)cccc12 + COc1cc2c(Oc3ccc(NC(=O)C4(C(=O)Nc5ccc(F)cc5)CC4)cc3F)ccnc2cc1OCCCN1CCOCC1 [Foretinib] (partner 0.25 µM)", 1.05),
    ("CCN(CC)CCCCNc1ncc2cc(-c3cc(OC)cc(OC)c3)c(NC(=O)NC(C)(C)C)nc2n1 + C[C@]1(O)C[C@@H](c2nc(-c3ccc4ccc(-c5ccccc5)nc4c3)c3c(N)nccn32)C1 [Linsitinib] (partner 1 µM)", 0.889),
    ("CCN(CC)CCCCNc1ncc2cc(-c3cc(OC)cc(OC)c3)c(NC(=O)NC(C)(C)C)nc2n1 + CC(C)C[C@H](NC(=O)[C@H](Cc1ccccc1)NC(=O)c1cnccn1)B(O)O [Bortezomib] (partner 0.002 µM)", 0.639),
    ("CCN(CC)CCCCNc1ncc2cc(-c3cc(OC)cc(OC)c3)c(NC(=O)NC(C)(C)C)nc2n1 + Cc1cc(Nc2cc(N3CCN(C)CC3)nc(Sc3ccc(NC(=O)C4CC4)cc3)n2)n[nH]1 [Tozasertib] (partner 0.1 µM)", 0.551),
]

###

Tested on: NCI-H596
Assay: relative viability (nuclei count vs DMSO), 5 days (fraction); higher = more cells survive
Conditions: first compound 0.6325 µM
QUANTITY_MEASURED: relative viability

# COMPOUND, ASSAY_RESULT
records = [
    ("COCC1(CO)C(=O)C2CCN1CC2 (stereo not given) [PRIMA-1MET] + CC1(C)CCC(c2ccc(Cl)cc2)=C(CN2CCN(c3ccc(C(=O)NS(=O)(=O)c4ccc(N[C@H](CCN5CCOCC5)CSc5ccccc5)c(S(=O)(=O)C(F)(F)F)c4)cc3)CC2)C1 [Navitoclax] (partner 0.5 µM)", 0.797),
    ("COCC1(CO)C(=O)C2CCN1CC2 (stereo not given) [PRIMA-1MET] + CS(=O)(=O)CCNCc1ccc(-c2ccc3ncnc(Nc4ccc(OCc5cccc(F)c5)c(Cl)c4)c3c2)o1 [Lapatinib] (partner 2 µM)", 1.01),
    ("COCC1(CO)C(=O)C2CCN1CC2 (stereo not given) [PRIMA-1MET] + Cc1nc(NC(=O)N2CCC[C@H]2C(N)=O)sc1-c1ccnc(C(C)(C)C(F)(F)F)c1 [Alpelisib] (partner 2 µM)", 0.446),
    ("COCC1(CO)C(=O)C2CCN1CC2 (stereo not given) [PRIMA-1MET] + Cc1cc(Nc2cc(N3CCN(C)CC3)nc(Sc3ccc(NC(=O)C4CC4)cc3)n2)n[nH]1 [Tozasertib] (partner 0.1 µM)", 0.803),
    ("COCC1(CO)C(=O)C2CCN1CC2 (stereo not given) [PRIMA-1MET] + CC(=O)Nc1cccc(-n2c(=O)n(C3CC3)c(=O)c3c(Nc4ccc(I)cc4F)n(C)c(=O)c(C)c32)c1 [Trametinib] (partner 0.02 µM)", 0.718),
]
